Attribution: patent US7361659B2

measurement.label: melting point (°C)

O=C(Nc1cc(S(=O)(=O)N(CCO)CCO)sc1Cl)c1cnn2c(C(F)(F)F)cc(-c3ccc(C(F)(F)F)cc3)nc12; 217
CCOc1cc(-c2cc(C(F)(F)F)n3ncc(C(=O)Nc4cc(S(N)(=O)=O)sc4Cl)c3n2)ccc1C(F)(F)F; 281
CN1CCN(S(=O)(=O)c2cc(NC(=O)c3cnn4c(C(F)F)cc(-c5ccc(C(F)(F)F)cc5)nc34)c(Cl)s2)CC1; 293
Cc1nc(NC(=O)c2cnn3c(C(F)(F)F)cc(-c4ccc(C(F)(F)F)cc4)nc23)sc1S(=O)(=O)NC(C)(C)CO; 257
O=C(Nc1cc(S(=O)(=O)NC(CO)CO)sc1Cl)c1cnn2c(C(F)F)cc(-c3ccc(C(F)(F)F)cc3)nc12; 241
NS(=O)(=O)c1cc(NC(=O)c2cnn3c(C(F)F)cc(-c4ccc(C(F)(F)F)cc4)nc23)c(Cl)s1; 298
Cc1nc(NC(=O)c2cnn3c(C(F)(F)F)cc(-c4ccc(C(F)(F)F)c(OCC(F)(F)F)c4)nc23)sc1S(N)(=O)=O; 264
Cc1cc(-c2cc(C(F)F)n3ncc(C(=O)Nc4nc(C)c(S(N)(=O)=O)s4)c3n2)ccc1C(F)(F)F; 307
Cc1nc(NC(=O)c2cnn3c(C(F)(F)F)cc(-c4ccc(C(F)(F)F)cc4)nc23)sc1S(N)(=O)=O; 303
CC(C)(CO)NS(=O)(=O)c1cnc(NC(=O)c2cnn3c(C(F)(F)F)cc(-c4ccc(C(F)(F)F)cc4)nc23)s1; 292
Cc1nc(NC(=O)c2cnn3c(C(F)(F)F)cc(-c4ccc(C(F)(F)F)cc4)nc23)sc1S(=O)(=O)NCCN(C)C; 235
NS(=O)(=O)c1cnc(NC(=O)c2cnn3c(C(F)F)cc(-c4ccc(C(F)(F)F)cc4)nc23)s1; 311
NCCNS(=O)(=O)c1cc(NC(=O)c2cnn3c(C(F)(F)F)cc(-c4ccc(C(F)(F)F)cc4)nc23)c(Cl)s1; 195
Cc1nc(NC(=O)c2cnn3c(C(F)(F)F)cc(-c4ccc(C(F)(F)F)c(OCC(F)(F)F)c4)nc23)sc1S(=O)(=O)NC(C)(C)CO; 275
